- Measurement notes: Dissociation constant, pKa of the compound
- Type: physicochemical
Outcome: YES for pKa of at least 8; NO for anything lower.

Worked examples follow.
>  <Compound>
CCn1nc(C(=O)O)c(=O)c2cc3c(cc21)OCO3 [CINOXACIN]

>  <Qualitative label>
NO

$$$$
>  <Compound>
O=C1CC2(CCCC2)CC(=O)N1CCCCN1CCN(c2ncccn2)CC1 [BUSPIRONE]

>  <Qualitative label>
NO

$$$$
>  <Compound>
COC(=O)C1=C(C)NC(C)=C(C(=O)OCCN(C)Cc2ccccc2)C1c1cccc([N+](=O)[O-])c1 (centres undefined) [NICARDIPINE]

>  <Qualitative label>
NO

$$$$
>  <Compound>
Fc1ccc([C@@H]2CCNC[C@H]2COc2ccc3c(c2)OCO3)cc1 [PAROXETINE]

>  <Qualitative label>
YES

$$$$

Item CCN(CC)C(=O)C1(c2ccccc2)CC1CN (centres undefined) with pKa of 8 or above?
YES

Item Cc1ncc2n1-c1ccc(Cl)cc1C(c1ccccc1F)=NC2 [MIDAZOLAM] with pKa of 8 or above?
YES

Item CC(CN(C)C)CN1c2ccccc2CCc2ccccc21 (centres undefined) [TRIMIPRAMINE] with pKa of 8 or above?
YES
